Assay: PK study in rats after single oral administration of Pogostemon cablin (PC) extract, plasma analysed by UPLC-MS/MS
Details: male, rat, plasma, po, 4 g/kg
endpoint: AUC (ng·h/mL)

molecule	unit.label	AUC
C[C@@H]1O[C@@H](O[C@@H]2[C@@H](O)[C@H](OCCc3ccc(O)c(O)c3)O[C@H](CO)[C@H]2OC(=O)/C=C/c2ccc(O)c(O)c2)[C@H](O)[C@H](O)[C@H]1O [Verbascoside, verbascoside]	ng·h/mL	1700

a: COc1cc(O)c2c(=O)c(OC)c(-c3ccc(OC)c(OC)c3)oc2c1
b: COc1cc(C(=O)O)ccc1O
Between the entries labelled a and b , which has a larger AUC value on record? Pick one; state its label.
b

* * *

Test: PK study in rats after single oral administration of Pogostemon cablin (PC) extract, plasma analysed by UPLC-MS/MS
Conditions: male, rat, plasma, po, 4 g/kg
endpoint: Tmax (min)

Guide cases for Tmax, answers given:
compound	value.observed
C[C@@H]1O[C@@H](O[C@@H]2[C@@H](O)[C@H](OCCc3ccc(O)c(O)c3)O[C@H](COC(=O)/C=C/c3ccc(O)c(O)c3)[C@H]2O)[C@H](O)[C@H](O)[C@H]1O [Isoacteoside, isoacteoside]	30
O=c1cc(-c2ccc(O)cc2)oc2cc(O)cc(O)c12	18
COc1cc(O)c2c(=O)c(OC)c(-c3ccc(O)c(OC)c3)oc2c1	48

A: C[C@@H]1O[C@@H](O[C@@H]2[C@@H](O)[C@H](OCCc3ccc(O)c(O)c3)O[C@H](CO)[C@H]2OC(=O)/C=C/c2ccc(O)c(O)c2)[C@H](O)[C@H](O)[C@H]1O [Verbascoside, verbascoside]
B: COc1cc(C(=O)O)ccc1O
C: COc1cc(O)c2c(=O)c(OC)c(-c3ccc(OC)c(OC)c3)oc2c1
List from greatest to least Tmax. // rank by listing labels in the order requested
B, C, A
(B: 84 min, C: 54 min, A: 24 min)

* * *

Test: PK study in rats after single oral administration of Pogostemon cablin (PC) extract, plasma analysed by UPLC-MS/MS
Conditions: male, rat, plasma, po, 4 g/kg
endpoint: Cmax (ng/mL)

Guide cases for Cmax, answers given:
molecule	Cmax / ng/mL
COc1cc(O)c2c(=O)c(OC)c(-c3ccc(O)c(OC)c3)oc2c1	47.8
COc1cc(O)c2c(=O)c(OC)c(-c3ccc(OC)c(OC)c3)oc2c1	33
C[C@@H]1O[C@@H](O[C@@H]2[C@@H](O)[C@H](OCCc3ccc(O)c(O)c3)O[C@H](COC(=O)/C=C/c3ccc(O)c(O)c3)[C@H]2O)[C@H](O)[C@H](O)[C@H]1O [Isoacteoside, isoacteoside]	109
O=c1cc(-c2ccc(O)cc2)oc2cc(O)cc(O)c12	64.2

P: COc1cc(C(=O)O)ccc1O
Q: C[C@@H]1O[C@@H](O[C@@H]2[C@@H](O)[C@H](OCCc3ccc(O)c(O)c3)O[C@H](CO)[C@H]2OC(=O)/C=C/c2ccc(O)c(O)c2)[C@H](O)[C@H](O)[C@H]1O [Verbascoside, verbascoside]
Of P versus Q , which is the one with smaller reported Cmax? Pick one; state its label.
P

* * *

Test: PK study in rats after single oral administration of Pogostemon cablin (PC) extract, plasma analysed by UPLC-MS/MS
Details: male, rat, plasma, po, 4 g/kg
endpoint: half-life (h)

compound	unit.label	half-life
C[C@@H]1O[C@@H](O[C@@H]2[C@@H](O)[C@H](OCCc3ccc(O)c(O)c3)O[C@H](CO)[C@H]2OC(=O)/C=C/c2ccc(O)c(O)c2)[C@H](O)[C@H](O)[C@H]1O [Verbascoside, verbascoside]	h	2.6

I: COc1cc(O)c2c(=O)c(OC)c(-c3ccc(OC)c(OC)c3)oc2c1
II: COc1cc(C(=O)O)ccc1O
Between the entries labelled I and II , which has a larger half-life value on record? Pick one; state its label.
II
(II: 2.5 h, I: 1.5 h)

* * *

Experiment: PK study in rats after single oral administration of Pogostemon cablin (PC) extract, plasma analysed by UPLC-MS/MS
Settings: male, rat, plasma, po, 4 g/kg
endpoint: AUC (ng·h/mL)

compound	unit.label	value.observed
COc1cc(O)c2c(=O)c(OC)c(-c3ccc(O)c(OC)c3)oc2c1 [Pachypodol, pachypodol]	ng·h/mL	243

a: O=c1cc(-c2ccc(O)cc2)oc2cc(O)cc(O)c12 [Apigenin, apigenin]
b: C[C@@H]1O[C@@H](O[C@@H]2[C@@H](O)[C@H](OCCc3ccc(O)c(O)c3)O[C@H](COC(=O)/C=C/c3ccc(O)c(O)c3)[C@H]2O)[C@H](O)[C@H](O)[C@H]1O [Isoacteoside, isoacteoside]
Of a versus b , which is the one with smaller reported AUC? Pick one; state its label.
a

* * *

Assay: PK study in rats after single oral administration of Pogostemon cablin (PC) extract, plasma analysed by UPLC-MS/MS
Conditions: male, rat, plasma, po, 4 g/kg
endpoint: AUC(0-inf) (ng·h/mL)

molecule	unit.label	AUC(0-inf)
COc1cc(O)c2c(=O)c(OC)c(-c3ccc(O)c(OC)c3)oc2c1 [Pachypodol, pachypodol]	ng·h/mL	243
COc1cc(C(=O)O)ccc1O [Vanillic acid, vanillic acid]	ng·h/mL	1310

1: O=c1cc(-c2ccc(O)cc2)oc2cc(O)cc(O)c12 [Apigenin, apigenin]
2: C[C@@H]1O[C@@H](O[C@@H]2[C@@H](O)[C@H](OCCc3ccc(O)c(O)c3)O[C@H](CO)[C@H]2OC(=O)/C=C/c2ccc(O)c(O)c2)[C@H](O)[C@H](O)[C@H]1O [Verbascoside, verbascoside]
3: C[C@@H]1O[C@@H](O[C@@H]2[C@@H](O)[C@H](OCCc3ccc(O)c(O)c3)O[C@H](COC(=O)/C=C/c3ccc(O)c(O)c3)[C@H]2O)[C@H](O)[C@H](O)[C@H]1O [Isoacteoside, isoacteoside]
4: COc1cc(O)c2c(=O)c(OC)c(-c3ccc(OC)c(OC)c3)oc2c1 [Retusin, retusin]
List from greatest to least AUC(0-inf). // rank by listing labels in the order requested
2, 3, 1, 4
(2: 1700 ng·h/mL, 3: 384 ng·h/mL, 1: 255 ng·h/mL, 4: 92.2 ng·h/mL)

* * *

Assay: PK study in rats after single oral administration of Pogostemon cablin (PC) extract, plasma analysed by UPLC-MS/MS
Conditions: male, rat, plasma, po, 4 g/kg
endpoint: half-life (h)

compound	half-life / h
O=c1cc(-c2ccc(O)cc2)oc2cc(O)cc(O)c12	2.7

1: C[C@@H]1O[C@@H](O[C@@H]2[C@@H](O)[C@H](OCCc3ccc(O)c(O)c3)O[C@H](COC(=O)/C=C/c3ccc(O)c(O)c3)[C@H]2O)[C@H](O)[C@H](O)[C@H]1O [Isoacteoside, isoacteoside]
2: COc1cc(O)c2c(=O)c(OC)c(-c3ccc(O)c(OC)c3)oc2c1
Between the entries labelled 1 and 2 , which has a larger half-life value on record? Pick one; state its label.
1
(1: 2.9 h, 2: 2 h)

Taken from paper PMC11150675.
